- Study Target: UniProt Q9NR96
- Sequence (Q9NR96 26-1032): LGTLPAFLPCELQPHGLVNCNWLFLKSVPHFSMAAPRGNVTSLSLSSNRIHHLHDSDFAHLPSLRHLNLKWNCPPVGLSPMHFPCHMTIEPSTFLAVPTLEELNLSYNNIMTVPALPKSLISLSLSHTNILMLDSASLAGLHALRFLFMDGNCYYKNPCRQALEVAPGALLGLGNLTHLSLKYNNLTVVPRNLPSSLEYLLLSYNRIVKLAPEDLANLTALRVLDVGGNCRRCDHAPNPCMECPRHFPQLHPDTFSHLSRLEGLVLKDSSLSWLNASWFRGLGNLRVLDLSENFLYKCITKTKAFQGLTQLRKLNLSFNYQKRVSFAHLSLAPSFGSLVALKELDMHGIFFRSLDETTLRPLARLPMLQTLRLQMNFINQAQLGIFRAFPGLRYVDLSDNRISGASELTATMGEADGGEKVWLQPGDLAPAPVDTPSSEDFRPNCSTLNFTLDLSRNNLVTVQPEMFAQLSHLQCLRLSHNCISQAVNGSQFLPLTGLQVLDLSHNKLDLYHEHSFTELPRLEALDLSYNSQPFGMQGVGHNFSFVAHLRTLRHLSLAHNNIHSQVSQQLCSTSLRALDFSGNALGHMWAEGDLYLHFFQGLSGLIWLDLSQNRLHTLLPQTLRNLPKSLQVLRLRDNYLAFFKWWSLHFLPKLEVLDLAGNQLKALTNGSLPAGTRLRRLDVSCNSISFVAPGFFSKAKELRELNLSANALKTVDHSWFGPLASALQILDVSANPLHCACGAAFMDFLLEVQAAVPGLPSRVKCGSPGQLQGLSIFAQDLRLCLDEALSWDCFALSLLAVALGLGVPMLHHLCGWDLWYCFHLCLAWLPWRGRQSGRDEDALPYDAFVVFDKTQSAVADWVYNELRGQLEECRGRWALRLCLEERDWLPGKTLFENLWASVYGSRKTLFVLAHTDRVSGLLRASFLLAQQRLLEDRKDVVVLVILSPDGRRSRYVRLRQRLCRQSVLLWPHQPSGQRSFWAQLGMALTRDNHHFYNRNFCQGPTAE
- Procedure Text: HEK293-Blue-hTLR-9 cells assay
- Condition Description: HEK293-Blue-hTLR9 cells, ODN2006 stimulation, 20 hrs, SEAP reporter; read-out: HEK/hTLR9 IC50
pIC50: −log10 of the molar value.
Quantity Kind: pIC50

Compound	pIC50
CO[C@@H]1CN(c2ccc(CCN3CCN4[C@@H](C3)CN(c3ccc(C#N)n5ncc(F)c35)C[C@H]4C)cc2)C[C@H]1N [Example 66]	6.94
C[C@@H]1CN(c2cccc(CCN3CCN4[C@@H](C3)CN(c3ccc(C#N)c5ncccc35)C[C@H]4C)n2)CCN1 [Example 58]	7.29

a. C[C@@H]1CN(c2ccc(C#N)c3ncccc23)C[C@@H]2CN(CCc3ccc(N4CC(C)(N)C4)nc3)CCN21 [Example 65]
b. [2H]c1ccc2c(N3C[C@@H]4CN(c5ncc(N6C[C@H]7NCCO[C@@H]7C6)cc5C)CCN4[C@@H](C)C3)ccc(C#N)c2n1 [Example 114]
Given a and given b , which shows the smaller recorded pIC50? Selection: enter the item's label. b
(b: 6.96, a: 7.30)
